// data source = paper PMC9182199

Assay system: bovine liver β-galactosidase
Assay overview: Glycosidase inhibition, laboratory 1: bovine liver β-galactosidase
Measurement conditions: methanol
Attribute measured: IC50 (µM)
Express it in µM; write the number only.

Exam item: Quick one: IC50 of "CC1(C)OB(c2ccc(NC(=O)c3cc(Cl)c(Cl)c(Cl)c3Cl)cc2)OC1(C)C" ?
Marked response: 333

Exam item: Try "CC1(C)OB(c2ccccc2CNC(=O)c2cc(Cl)c(Cl)c(Cl)c2Cl)OC1(C)C" next.
Marked response: 278

Exam item: Now the same for "CC1(C)OB(c2cccc(NC(=O)c3cc(Cl)c(Cl)c(Cl)c3Cl)c2)OC1(C)C"
Marked response: 213

---

Assay system: yeast α-glucosidase (Saccharomyces cerevisiae)
Construct: purchased Sigma
Sequence (P53341 whole entry): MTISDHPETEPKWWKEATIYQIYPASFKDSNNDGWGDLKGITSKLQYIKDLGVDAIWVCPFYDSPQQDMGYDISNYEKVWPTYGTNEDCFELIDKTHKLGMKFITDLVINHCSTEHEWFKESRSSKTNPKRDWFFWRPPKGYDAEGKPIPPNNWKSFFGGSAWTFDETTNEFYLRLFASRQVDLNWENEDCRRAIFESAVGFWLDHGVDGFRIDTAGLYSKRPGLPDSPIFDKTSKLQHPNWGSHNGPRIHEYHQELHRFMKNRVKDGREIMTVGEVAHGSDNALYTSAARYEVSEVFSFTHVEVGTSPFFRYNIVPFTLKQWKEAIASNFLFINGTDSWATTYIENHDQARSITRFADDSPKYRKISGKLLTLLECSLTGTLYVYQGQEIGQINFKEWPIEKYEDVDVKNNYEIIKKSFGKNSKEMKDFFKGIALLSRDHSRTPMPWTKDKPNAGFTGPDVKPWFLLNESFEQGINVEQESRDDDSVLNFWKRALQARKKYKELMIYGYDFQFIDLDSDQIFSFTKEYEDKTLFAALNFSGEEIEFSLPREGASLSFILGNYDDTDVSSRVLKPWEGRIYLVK
Assay overview: Glycosidase inhibition, laboratory 2: yeast α-glucosidase
Format: biochemical
Measurement conditions: read-out: % inhibition at ~400 μM, water
Hi there, I'd appreciate the recorded inhibition at 400 µM for every entry that follows.
Number only, in %; omit the unit.

Exam item: Recorded inhibition at 400 µM for CC1(C)OB(c2ccccc2CNC(=O)c2cc(Cl)c(Cl)c(Cl)c2Cl)OC1(C)C [ortho 8] , please?
Marked response: 68.9

Exam item: Entry CC1(C)OB(c2cccc(NC(=O)c3cc(Cl)c(Cl)c(Cl)c3Cl)c2)OC1(C)C [meta 5] please
Marked response: 82.8

Exam item: Same lookup for CC1(C)OB(c2ccc(CN3C(=O)c4c(Cl)c(Cl)c(Cl)c(Cl)c4C3=O)cc2)OC1(C)C [para 3] , please.
Marked response: 29.3

Exam item: Now the same for CC1(C)OB(c2ccc(NC(=O)c3cc(Cl)c(Cl)c(Cl)c3Cl)cc2)OC1(C)C [para 5]
Marked response: 38.4

Exam item: Next entry: CC1(C)OB(c2cccc(CN3C(=O)c4c(Cl)c(Cl)c(Cl)c(Cl)c4C3=O)c2)OC1(C)C [meta 3]
Marked response: 32.2

Exam item: Then what about the molecule N[C@@H](Cc1ccc(B(O)O)cc1)C(=O)O [BPA, 4-borono-L-phenylalanine, reference compound] ?
Marked response: 2.9

Exam item: Could you do the same for CC1(C)OB(c2ccccc2NC(=O)c2cc(Cl)c(Cl)c(Cl)c2Cl)OC1(C)C [ortho 5] , please?
Marked response: 17.3

---

Tested on: bovine liver β-glucuronidase
Assay overview: Glycosidase inhibition, laboratory 2: bovine liver β-glucuronidase
Assay type: biochemical
Measurement conditions: water
Attribute measured: % inhibition at ~400 μM (%)
Output spec: scalar in %, unitless text.

Exam item: Requested read-out: % inhibition at ~400 μM. Entry: CC1(C)OB(c2ccc(NC(=O)c3cc(Cl)c(Cl)c(Cl)c3Cl)cc2)OC1(C)C [para 5]
Marked response: −2.2

Exam item: Subsequent entry: CC1(C)OB(c2ccc(CN3C(=O)c4c(Cl)c(Cl)c(Cl)c(Cl)c4C3=O)cc2)OC1(C)C [para 3]
Marked response: 2.1

Exam item: And for CC1(C)OB(c2cccc(CN3C(=O)c4c(Cl)c(Cl)c(Cl)c(Cl)c4C3=O)c2)OC1(C)C [meta 3] ?
Marked response: 5.8

Exam item: And then CC1(C)OB(c2ccccc2CNC(=O)c2cc(Cl)c(Cl)c(Cl)c2Cl)OC1(C)C [ortho 8] , what is it?
Marked response: −6.3

Exam item: Next: CC1(C)OB(c2ccccc2NC(=O)c2cc(Cl)c(Cl)c(Cl)c2Cl)OC1(C)C [ortho 5]
Marked response: −3.5

Exam item: Same lookup for CC1(C)OB(c2cccc(NC(=O)c3cc(Cl)c(Cl)c(Cl)c3Cl)c2)OC1(C)C [meta 5] , please.
Marked response: −5.7
